Catalogue of peptide exchange yield values
target: T1, HLA-B*44:05 (human); experiment: UV peptide exchange, anti-b2m ELISA
T1 construct: also called peptide-receptive MHC class I molecule

Prompt: What peptide exchange yield value was documented for this binder, YEWEPFAEV ?
Completion: 10 to 20%

Prompt: What peptide exchange yield value was documented for this binder, KELSVFKKF ?
Completion: 50 to 75%
